src = ChEMBL document CHEMBL3881530

# protocol text: AUC in Sprague-Dawley rat at 4.6 mg/kg administered via oral gavage measured up to 4 hrs by LC/MS/MS analysis
# Format: ADME, organism-based
# Parameters: time < 4 hr, dose 4.6 mg/kg, route oral
# condition: in vivo
readout kind: AUC at 4 h
The number alone won't do; follow it with the unit.

Prompt: # AUC at 4 h lookup, item C/C(=C\c1cc(F)c(Oc2ccc(S(=O)(=O)NCc3ccc(CP(=O)(O)O)cc3)cc2)c(F)c1)C(=O)N=C(N)N
Completion: 9 ng·h/mL

###

# protocol text: Drug recovery in Sprague-Dawley rat feces at 0.1 mg/kg administered via oral gavage measured after 72 hrs by LC/MS/MS analysis
# Assay type: ADME, organism-based
# condition: faeces, read-out: Drug recovery
readout kind: dose excreted at 72 h

INSERT INTO results (molecule, readout_kind, measurement) VALUES
  ('CN1Cc2c(Cl)cc(Cl)cc2[C@H](c2cccc(S(=O)(=O)NCCOCCOCCNC(=O)NCCCCNC(=O)NCCOCCOCCNS(=O)(=O)c3cccc([C@@H]4CN(C)Cc5c(Cl)cc(Cl)cc54)c3)c2)C1.Cl.Cl (single isomer, unassigned) [TENAPANOR HYDROCHLORIDE]', 'dose excreted at 72 h', '90.5 to 93.8%');

Prompt: # dose excreted at 72 h lookup, item CN1Cc2c(Cl)cc(Cl)cc2[C@H](c2cccc(S(=O)(=O)NCCOCCOCCNC(=O)Nc3ccc(NC(=O)NCCOCCOCCNS(=O)(=O)c4cccc([C@@H]5CN(C)Cc6c(Cl)cc(Cl)cc65)c4)cc3)c2)C1.Cl.Cl (single isomer, unassigned)
Completion: 75.8 to 104%
